The following compounds are shown together with reported pIC50 values.
Biological target: human ROCKI/ROCKII mix (Homo sapiens, UniProt O75116)
Sequence (O75116 11-552 limits assumed): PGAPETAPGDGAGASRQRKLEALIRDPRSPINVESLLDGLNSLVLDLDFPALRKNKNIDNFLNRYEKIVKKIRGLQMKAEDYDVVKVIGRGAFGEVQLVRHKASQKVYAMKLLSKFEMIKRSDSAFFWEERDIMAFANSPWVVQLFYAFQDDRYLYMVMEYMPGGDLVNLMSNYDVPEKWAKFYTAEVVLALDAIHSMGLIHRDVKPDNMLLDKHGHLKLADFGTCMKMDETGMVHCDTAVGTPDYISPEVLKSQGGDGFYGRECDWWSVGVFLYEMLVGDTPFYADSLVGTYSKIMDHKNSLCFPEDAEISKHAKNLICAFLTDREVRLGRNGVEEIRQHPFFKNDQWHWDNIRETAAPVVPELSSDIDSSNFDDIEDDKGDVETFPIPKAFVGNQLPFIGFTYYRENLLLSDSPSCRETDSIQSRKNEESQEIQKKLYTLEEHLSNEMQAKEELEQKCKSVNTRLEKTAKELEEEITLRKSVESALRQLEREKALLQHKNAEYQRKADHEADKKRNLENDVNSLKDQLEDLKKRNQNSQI
Experiment: ROCK inhibition, fluorescence polarization (FP) IMAP assay
Settings: 10 μM ATP
pIC50: −log10 of the molar value.
Measurement Name: pIC50

[[record]]
compound = "COc1cccc(C(=O)Nc2cc(C(=O)Nc3ccncc3)ccc2C(C)N)c1 (stereo not drawn)"
meas_value = "> 7.30"

[[record]]
compound = "CC(N)c1ccc(C(=O)Nc2ccncc2)cc1NC(=S)Nc1ccccc1 (stereo not drawn)"
meas_value = "6.30 to 7.30"

[[record]]
compound = "CC(N)c1ccc(C(=O)Nc2ccncc2)cc1NCc1ccco1 (stereo not drawn)"
meas_value = "6.30 to 7.30"

[[record]]
compound = "CC(N)c1ccc(C(=O)Nc2ccncc2)cc1NC(=O)Nc1ccccc1 (stereo not drawn)"
meas_value = "6.30 to 7.30"

[[record]]
compound = "COc1ccc(C(=O)Nc2cc(C(=O)Nc3ccncc3)ccc2C(C)N)cc1 (stereo not drawn)"
meas_value = "> 7.30"

[[record]]
compound = "CC(N)c1ccc(C(=O)Nc2ccncc2)cc1-c1ccc2ccccc2c1 (stereo not drawn)"
meas_value = "> 7.30"

